Provide the reported Population Membrane Permeable-Phenotype (%) of each item.
# Tested on: U2OS
# EXPERIMENTAL_DETAILS: Multiplex assay against U2OS
# Type: toxicity, cell-based
# COND: human, 24 h, 10 µM, compound concentration 10 uM, replicate 2
One number for each entry, in %.

Known results for compounds:
Cc1c(CC(=O)O)c2cccnc2n1Cc1ccc(S(C)(=O)=O)cc1C(F)(F)F : 8
Cl.NCCc1ccc(O)c(O)c1 [DOPAMINE HYDROCHLORIDE] : 1
COC[C@@H](c1ccc(C(F)(F)F)cc1)N1CCN(C2(C)CCN(C(=O)c3c(C)ncnc3C)CC2)C[C@@H]1C.O=C(O)/C=C\C(=O)O [VICRIVIROC MALEATE] : 4
CC(=O)Nc1cccc2c1c(Sc1ccc(Cl)cc1)c(C)n2CC(=O)O : 3

For each of the compounds below, state Population Membrane Permeable-Phenotype (%).
1. Cc1sc2c(c1C)C(c1ccc(Cl)cc1)=N[C@@H](CC(=O)NCCCCCCCCNC(=O)COc1cccc3c1C(=O)N(C1CCC(=O)NC1=O)C3=O)c1nnc(C)n1-2 (stereo partly drawn)
2. CC(C)c1noc(N2CCC(COc3ccc(-c4ccc(S(C)(=O)=O)cc4)nc3)CC2)n1
3. O=C(CCCc1ccccc1)Nc1nc2ccccc2c(=O)s1
4. Br.CS(=O)(=O)Nc1c(O)ccc2c1CCCC2C1=NCCN1 (stereo not drawn)
5. O=C(NCCN1CCC(n2c(=O)[nH]c3cc(Cl)ccc32)CC1)c1ccc(F)cc1 [HALOPEMIDE]

Reply:
1. 21
2. 6
3. 8
4. 3
5. 26

For each of the compounds below, state Population Membrane Permeable-Phenotype (%).
1. CCCCCC(O)/C=C/[C@H]1C(=O)CC(O)C1C/C=C\CCCC(=O)O (stereo partly drawn)
2. CCCCC1=NC2(CCCC2)C(=O)N1Cc1ccc(-c2ccccc2-c2nnn[nH]2)cc1
3. C[C@H](N)COC(=O)[C@@H](CCCCN)NC(=O)Cc1c(-c2ccc3ccccc3c2)[nH]c2c1ccc1ccccc12
4. CCc1cc2cc(NS(=O)(=O)c3ccc(C#N)cc3)ccc2n(CC)c1=O

Reply:
1: 5; 2: 7; 3: 11; 4: 6
